Values compiled from PubChem BioAssay (NCI).

# Tested on: KM12 colon
# assay-explanation: NCI-60 one-dose screen, 48 h
# experimental-context: 10 µM unless noted
About 83,000 compounds went through this panel and 20% of them were active in at least one assay; those are over-represented in the sample as a whole. Calls of active or inactive are those of the source. The calls were made as follows: active = growth percent below 10; inactive = the rest.
A correct response names exactly one class from True for active, False for inactive

In: Recorded test call requested for O=C(O)c1cn(C2CC2)c2cc(N3CCN(C(=O)C[n+]4cccc5ccccc54)CC3)c(F)cc2c1=O
Out: False

In: Recorded test call requested for Cc1[nH]c(C(=O)Nc2ccccc2OCc2cccc(C(=O)NCCN)c2)c(Cl)c1Cl
Out: False

In: Recorded test call requested for O=C(NNc1nc(Cl)nc(N2CCN(C(c3ccccc3)c3ccccc3)CC2)n1)c1ccccc1
Out: False

In: Recorded test call requested for Cc1cc(NC(=O)c2cnc(N3CCN(CCOCCOCCOCCOCCC(=O)N[C@H](C(=O)N4C[C@H](O)C[C@H]4C(=O)N[C@@H](C)c4ccc(-c5scnc5C)cc4)C(C)(C)C)CC3)cn2)c2ncccc2c1
Out: True

In: Recorded test call requested for Cn1/c(=N/NC(N)=S)ccc2ccccc21
Out: False

In: Recorded test call requested for O=C(CN1CCOCC1)Nc1ccc2ncnc(Nc3ccc(OCc4cccc(F)c4)c(Cl)c3)c2c1
Out: False

In: Recorded test call requested for CC1(c2ccccc2)NC(=O)N(CC(=O)Nc2cccc(I)c2)C1=O (stereo not drawn)
Out: False

In: Recorded test call requested for [2H]C1([2H])NC([2H])([2H])C([2H])([2H])N(c2ccc(Nc3ncc4cc(C(=O)N(C)C)n(C5CCCC5)c4n3)nc2)C1([2H])[2H]
Out: False

In: Recorded test call requested for CC(=O)c1cccc(NS(=O)(=O)c2cccc(C(=O)Nc3ccc(Br)cc3)c2)c1
Out: False

In: Recorded test call requested for N#C/C(=C\c1ccc(Br)cc1)n1nnc2cccc(F)c21
Out: True

In: Recorded test call requested for CN1CCN(Cc2ccc(NC(=O)c3cncc(C#Cc4cnccc4C(F)(F)F)c3)cc2C(F)(F)F)CC1
Out: False

In: Recorded test call requested for C=CCn1c(SCC(=O)Nc2ccc(C(=O)/C=C/c3cc(OC)c(OC)c(OC)c3)cc2)nnc1-c1cc(OC)c(OC)c(OC)c1
Out: True

In: Recorded test call requested for CC(=O)N1N=C(c2cccc(Nc3ccncc3)c2)CC1c1ccc2c(c1)OCO2 (stereo not drawn)
Out: False

In: Recorded test call requested for O=C(Nc1nc2ccc(C(=O)N3CCN(c4ccc(Cl)c(Cl)c4)CC3)cc2s1)c1ccc(NCCc2ccccc2)c([N+](=O)[O-])c1
Out: False

In: Recorded test call requested for C#CC(=O)Nc1cccc(Nc2nc3c(c(NCc4ccccc4)n2)CCCC3)c1
Out: True

In: Recorded test call requested for COc1ccc(-c2nn(Cc3ccccc3)c3c2-c2oncc2CC3)cc1OC
Out: False

In: Recorded test call requested for N#CC1=C(N)Oc2c(ccc3ccccc23)C1c1ccc([N+](=O)[O-])cc1 (stereo not drawn)
Out: False

In: Recorded test call requested for O=c1[nH]nc(-c2ccc(Cl)cc2)cc1Cc1cccc([N+](=O)[O-])c1
Out: False

----------
# Tested on: LOX IMVI melanoma
# assay-explanation: NCI-60 one-dose screen, 48 h (100 = growth as untreated, 0 = no growth, -100 = all killed)
# experimental-context: 10 µM unless noted
The panel holds about 83,000 compounds, 20% with a hit somewhere; the sample as a whole holds those more often.
readout-label: growth (%)
# unit: % | format: bare number

In: Quote LOX IMVI melanoma growth for entry COc1ccc(-c2c[nH]c(C(=O)O)c2-c2cc(OC)c3c(c2OC)OCO3)cc1 .
Out: 95.4

In: Quote LOX IMVI melanoma growth for entry COc1cc(/C=C/C(=O)c2ccc(Nc3ncnc4ccccc34)cc2)cc(OC)c1 .
Out: 5.65

In: Quote LOX IMVI melanoma growth for entry Cc1cc(C(=O)Nc2ncnc3nc[nH]c23)no1 .
Out: 99.4

In: Quote LOX IMVI melanoma growth for entry CC1(C)CC[C@]2(C(=O)NCC#CCN3CCOCC3)CC[C@]3(C)C(=CC[C@@H]4[C@@]5(C)Cc6c([nH]c7ccccc67)C(C)(C)[C@@H]5CC[C@]43C)[C@@H]2C1 .
Out: 94.6

In: Quote LOX IMVI melanoma growth for entry COc1ccc(C(=O)/C=C/c2cn(Cc3ccc(Cl)cc3)c3ccccc23)cc1 .
Out: 49.2

In: Quote LOX IMVI melanoma growth for entry CCOC(=O)N1CCN(CCCCl)CC1 .
Out: 99.5

In: Quote LOX IMVI melanoma growth for entry CC(C)Cc1ccc(C(C)C(=O)NCc2c[nH]c3ccc(Cl)cc23)cc1 (centres undefined) .
Out: 96

In: Quote LOX IMVI melanoma growth for entry O=S(=O)(O)c1cc(O)c2c(N=Nc3ccc(Nc4ccccc4)c4c(S(=O)(=O)O)cccc34)cc(S(=O)(=O)O)cc2c1 .
Out: 96.5

In: Quote LOX IMVI melanoma growth for entry CCc1c(Nc2ccc(C)cc2)[nH]c(N)nc1=S .
Out: 105

----------
# Test system: UACC-257 melanoma
# assay-explanation: NCI-60 one-dose screen, 48 h (100 = growth as untreated, 0 = no growth, -100 = all killed)
# experimental-context: 10 µM unless noted
The panel holds about 83,000 compounds, 20% with a hit somewhere; the sample as a whole holds those more often. Calls of active or inactive are those of the source. The calls were made as follows: active = growth percent below 10; inactive = the rest.
readout-label: growth

In: Consider the compound Cc1ccc(Nc2cc(=S)nc(N)[nH]2)cc1C . State its measured growth.
Out: 103% (inactive)

In: Consider the compound O=C(Nc1nc2ccc(C(=O)N3CCN(c4ccc(Cl)c(Cl)c4)CC3)cc2s1)c1ccc(NCCc2ccccc2)c([N+](=O)[O-])c1 . State its measured growth.
Out: 99.4% (inactive)

In: Consider the compound NC(=O)c1cccc(-c2cc(C(N)=O)ccc2Cl)c1 . State its measured growth.
Out: 47.8% (inactive)

In: Consider the compound COc1ccc(C(=O)c2cc(C)c(OC)c(C)c2)c(OC)c1N(C(=O)C(Cl)Cl)C(=O)C(Cl)Cl . State its measured growth.
Out: 48.3% (inactive)

In: Consider the compound Cc1cc(NC(=O)c2cnc(N3CCN(CCOCCOCCOCCOCCC(=O)N[C@H](C(=O)N4C[C@H](O)C[C@H]4C(=O)N[C@@H](C)c4ccc(-c5scnc5C)cc4)C(C)(C)C)CC3)cn2)c2ncccc2c1 . State its measured growth.
Out: -5.78% (active)

In: Consider the compound O=S(=O)(c1ccc(N/N=C\c2ccccc2)cc1)c1ccc(N/N=C/c2ccccc2)cc1 . State its measured growth.
Out: 80.5% (inactive)

In: Consider the compound C=C(C)[C@@H]1CC[C@]2(CO)CC[C@]3(C)[C@H](CC[C@@H]4[C@@]5(C)CCCNC(C)(C)[C@@H]5CC[C@]43C)[C@@H]12 . State its measured growth.
Out: -8.72% (active)

In: Consider the compound COc1ccc(Cl)cc1NC(=O)c1c(NC(=O)C(F)(F)C(F)(F)F)sc2c1CCCCC2 . State its measured growth.
Out: -16.5% (active)

----------
# Test system: HCT-15 colon
# assay-explanation: NCI-60 one-dose screen, 48 h (100 = growth as untreated, 0 = no growth, -100 = all killed)
# experimental-context: 10 µM unless noted
This is part of a sample that, as a whole, favours compounds with a hit. Of some 83,000 tested, about 20% had one in any assay.
Param threshold (70%) applies to growth; output Y when value >= threshold, N when value < threshold.

In: Is the recorded value of growth equal to or greater than 70% for this compound? C1=C2CNCC3=Cc4ccc5ccccc5c4OC23Oc2c1ccc1ccccc21
Out: N

In: Is the recorded value of growth equal to or greater than 70% for this compound? CC1=NNC(=O)C1CCC(=O)N/N=C(\C)c1ccc2ccccc2c1 (stereo not given)
Out: Y

In: Is the recorded value of growth equal to or greater than 70% for this compound? NC(=O)CN1CCN(c2ccccc2Cl)CC1
Out: Y

In: Is the recorded value of growth equal to or greater than 70% for this compound? COc1ccc(-c2nc(SC(C)C)nc(NNC(N)=O)c2C#N)cc1
Out: N

In: Is the recorded value of growth equal to or greater than 70% for this compound? NC(=S)N/N=C/c1ccc(OC(=O)COc2cc(Cl)c(Cl)cc2Cl)cn1
Out: Y

In: Is the recorded value of growth equal to or greater than 70% for this compound? CN(C)C(=O)c1cc2cnc(Nc3ccc(-c4csc5c(=O)cc(N6CCOCC6)oc45)cc3)nc2n1C1CCCC1
Out: N

In: Is the recorded value of growth equal to or greater than 70% for this compound? COc1cc(NCCCN(CC(C)C)CC(C)C)c2ncccc2c1
Out: Y

In: Is the recorded value of growth equal to or greater than 70% for this compound? O=C(NCCc1ccccn1)OCc1nc2nc(Cl)nc(N3CCOCC3)c2[nH]1
Out: N
